# test.conditions: in n-butanol, 323.67 K
reported.property: solubility (mole fraction)
Answers are plain numbers.

In: What does the data say about its solubility (mole fraction)? Entry: "c1ccc2ccccc2c1"
Out: 0.183

---

# test.conditions: in ethanol, 333.9 K
reported.property: solubility (mole fraction)
Numbers only.

In: What does the data say about its solubility (mole fraction)? Entry: "c1ccc2ccccc2c1"
Out: 0.204

---

# test.conditions: in n-butanol, 333.65 K
reported.property: solubility (mole fraction)

In: What does the data say about its solubility (mole fraction)? Entry: "c1ccc2ccccc2c1"
Out: 0.333

---

# test.conditions: in ethanol, 309.53 K
reported.property: solubility (mole fraction)
Numbers only.

In: What does the data say about its solubility (mole fraction)? Entry: "c1ccc2ccccc2c1"
Out: 0.0566

---

# test.conditions: in acetone, 298.11 K
reported.property: solubility (mole fraction)

In: What does the data say about its solubility (mole fraction)? Entry: "c1ccc2ccccc2c1"
Out: 0.218

---

# test.conditions: in acetone, 311.03 K
reported.property: solubility (mole fraction)
Numbers only.

In: What does the data say about its solubility (mole fraction)? Entry: "c1ccc2ccccc2c1"
Out: 0.323

---

# test.conditions: in acetone, 315.74 K
reported.property: solubility (mole fraction)
One number for each entry.

In: What does the data say about its solubility (mole fraction)? Entry: "c1ccc2ccccc2c1"
Out: 0.376

---

# test.conditions: in n-heptane, 324.25 K
reported.property: solubility (mole fraction)

In: What does the data say about its solubility (mole fraction)? Entry: "c1ccc2ccccc2c1"
Out: 0.23

---

# test.conditions: in n-butanol, 338.15 K
reported.property: solubility (mole fraction)
Answers are plain numbers.

In: What does the data say about its solubility (mole fraction)? Entry: "c1ccc2ccccc2c1"
Out: 0.477

---

# test.conditions: in toluene, 291.35 K
reported.property: solubility (mole fraction)
Answers are plain numbers.

In: What does the data say about its solubility (mole fraction)? Entry: "c1ccc2ccccc2c1"
Out: 0.239

---

# test.conditions: in n-heptane, 331.5 K
reported.property: solubility (mole fraction)

In: What does the data say about its solubility (mole fraction)? Entry: "c1ccc2ccccc2c1"
Out: 0.35

---

# test.conditions: in acetone, 312.03 K
reported.property: solubility (mole fraction)
Give bare numbers.

In: What does the data say about its solubility (mole fraction)? Entry: "c1ccc2ccccc2c1"
Out: 0.335

---

# test.conditions: in n-heptane, 311.2 K
reported.property: solubility (mole fraction)
Numbers only.

In: What does the data say about its solubility (mole fraction)? Entry: "c1ccc2ccccc2c1"
Out: 0.133

---

# test.conditions: in toluene, 315.25 K
reported.property: solubility (mole fraction)
Numbers only.

In: What does the data say about its solubility (mole fraction)? Entry: "c1ccc2ccccc2c1"
Out: 0.439

---

# test.conditions: in n-butanol, 327.76 K
reported.property: solubility (mole fraction)
Give bare numbers.

In: What does the data say about its solubility (mole fraction)? Entry: "c1ccc2ccccc2c1"
Out: 0.228

---

# test.conditions: in ethanol, 325.68 K
reported.property: solubility (mole fraction)
Answers are plain numbers.

In: What does the data say about its solubility (mole fraction)? Entry: "c1ccc2ccccc2c1"
Out: 0.116

---

# test.conditions: in n-butanol, 342.04 K
reported.property: solubility (mole fraction)

In: What does the data say about its solubility (mole fraction)? Entry: "c1ccc2ccccc2c1"
Out: 0.62

---

# test.conditions: in toluene, 318.55 K
reported.property: solubility (mole fraction)
Answers are plain numbers.

In: What does the data say about its solubility (mole fraction)? Entry: "c1ccc2ccccc2c1"
Out: 0.472

---

# test.conditions: in n-heptane, 321.33 K
reported.property: solubility (mole fraction)
Answers are plain numbers.

In: What does the data say about its solubility (mole fraction)? Entry: "c1ccc2ccccc2c1"
Out: 0.209

---

# test.conditions: in ethanol, 304.26 K
reported.property: solubility (mole fraction)

In: What does the data say about its solubility (mole fraction)? Entry: "c1ccc2ccccc2c1"
Out: 0.0464

---

# test.conditions: in ethanol, 318.07 K
reported.property: solubility (mole fraction)
One number for each entry.

In: What does the data say about its solubility (mole fraction)? Entry: "c1ccc2ccccc2c1"
Out: 0.076

---

# test.conditions: in n-heptane, 312.6 K
reported.property: solubility (mole fraction)

In: What does the data say about its solubility (mole fraction)? Entry: "c1ccc2ccccc2c1"
Out: 0.141

---

# test.conditions: in n-butanol, 315.17 K
reported.property: solubility (mole fraction)
Give bare numbers.

In: What does the data say about its solubility (mole fraction)? Entry: "c1ccc2ccccc2c1"
Out: 0.119

---

# test.conditions: in toluene, 304.54 K
reported.property: solubility (mole fraction)
Answers are plain numbers.

In: What does the data say about its solubility (mole fraction)? Entry: "c1ccc2ccccc2c1"
Out: 0.34

---

# test.conditions: in n-heptane, 297.85 K
reported.property: solubility (mole fraction)
Give bare numbers.

In: What does the data say about its solubility (mole fraction)? Entry: "c1ccc2ccccc2c1"
Out: 0.0798

---

# test.conditions: in n-butanol, 339.63 K
reported.property: solubility (mole fraction)
Give bare numbers.

In: What does the data say about its solubility (mole fraction)? Entry: "c1ccc2ccccc2c1"
Out: 0.526

---

# test.conditions: in ethanol, 329.34 K
reported.property: solubility (mole fraction)
One number for each entry.

In: What does the data say about its solubility (mole fraction)? Entry: "c1ccc2ccccc2c1"
Out: 0.14

---

# test.conditions: in n-heptane, 317.65 K
reported.property: solubility (mole fraction)
Give bare numbers.

In: What does the data say about its solubility (mole fraction)? Entry: "c1ccc2ccccc2c1"
Out: 0.177

---

# test.conditions: in acetone, 309.37 K
reported.property: solubility (mole fraction)
One number for each entry.

In: What does the data say about its solubility (mole fraction)? Entry: "c1ccc2ccccc2c1"
Out: 0.31

---

# test.conditions: in toluene, 311.93 K
reported.property: solubility (mole fraction)
Numbers only.

In: What does the data say about its solubility (mole fraction)? Entry: "c1ccc2ccccc2c1"
Out: 0.406

---

# test.conditions: in toluene, 308.53 K
reported.property: solubility (mole fraction)
One number for each entry.

In: What does the data say about its solubility (mole fraction)? Entry: "c1ccc2ccccc2c1"
Out: 0.374

---

# test.conditions: in n-heptane, 326.98 K
reported.property: solubility (mole fraction)

In: What does the data say about its solubility (mole fraction)? Entry: "c1ccc2ccccc2c1"
Out: 0.265

---

# test.conditions: in ethanol, 321.46 K
reported.property: solubility (mole fraction)
Answers are plain numbers.

In: What does the data say about its solubility (mole fraction)? Entry: "c1ccc2ccccc2c1"
Out: 0.0876

---

# test.conditions: in acetone, 306.63 K
reported.property: solubility (mole fraction)
Give bare numbers.

In: What does the data say about its solubility (mole fraction)? Entry: "c1ccc2ccccc2c1"
Out: 0.285

---

# test.conditions: in n-butanol, 329.03 K
reported.property: solubility (mole fraction)
One number for each entry.

In: What does the data say about its solubility (mole fraction)? Entry: "c1ccc2ccccc2c1"
Out: 0.252

---

# test.conditions: in n-butanol, 331.8 K
reported.property: solubility (mole fraction)
Numbers only.

In: What does the data say about its solubility (mole fraction)? Entry: "c1ccc2ccccc2c1"
Out: 0.294

---

# test.conditions: in ethanol, 330.43 K
reported.property: solubility (mole fraction)
Answers are plain numbers.

In: What does the data say about its solubility (mole fraction)? Entry: "c1ccc2ccccc2c1"
Out: 0.154

---

# test.conditions: in toluene, 301.45 K
reported.property: solubility (mole fraction)

In: What does the data say about its solubility (mole fraction)? Entry: "c1ccc2ccccc2c1"
Out: 0.31

---

# test.conditions: in n-heptane, 314.13 K
reported.property: solubility (mole fraction)
Numbers only.

In: What does the data say about its solubility (mole fraction)? Entry: "c1ccc2ccccc2c1"
Out: 0.15

---

# test.conditions: in n-heptane, 307.53 K
reported.property: solubility (mole fraction)
One number for each entry.

In: What does the data say about its solubility (mole fraction)? Entry: "c1ccc2ccccc2c1"
Out: 0.115

---

# test.conditions: in n-butanol, 342.8 K
reported.property: solubility (mole fraction)
Numbers only.

In: What does the data say about its solubility (mole fraction)? Entry: "c1ccc2ccccc2c1"
Out: 0.66

---

# test.conditions: in n-heptane, 315.15 K
reported.property: solubility (mole fraction)
Give bare numbers.

In: What does the data say about its solubility (mole fraction)? Entry: "c1ccc2ccccc2c1"
Out: 0.158

---

# test.conditions: in n-heptane, 290.25 K
reported.property: solubility (mole fraction)

In: What does the data say about its solubility (mole fraction)? Entry: "c1ccc2ccccc2c1"
Out: 0.0595

---

# test.conditions: in ethanol, 314.52 K
reported.property: solubility (mole fraction)
One number for each entry.

In: What does the data say about its solubility (mole fraction)? Entry: "c1ccc2ccccc2c1"
Out: 0.0658

---

# test.conditions: in n-heptane, 305.3 K
reported.property: solubility (mole fraction)
Numbers only.

In: What does the data say about its solubility (mole fraction)? Entry: "c1ccc2ccccc2c1"
Out: 0.107
